System: PLK1;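 note: KINOMEscan kinase panel screen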
Conditions: concentration: 1 μM, replicates: in singlicate; n = 1
// classify: if (%Inh < 3%) satisfied else not satisfied

Example entries and their recorded answers appear below.
Smiles Notation	Class Label
Cn1cc(-c2ccc3c(c2)CCN3C(=O)Cc2cccc(C(F)(F)F)c2)c2c(N)ncnc21	satisfied
Nc1n[nH]c2nnc(-c3ccccc3)cc12	satisfied
Fc1cccc(COc2ccc(Nc3ncnc4cc[nH]c34)cc2Cl)c1	not satisfied
CSc1nn2c(=O)cc(N3CCOCC3)nc2n1Cc1cccc(Cl)c1Cl	not satisfied
c1ccc(-c2ccc3c(-c4ccnc(Nc5ccc6c(c5)OCCO6)n4)cnn3n2)cc1	not satisfied
Cl.Fc1ccccc1COc1ccc(Nc2ncnc3ccc(-c4nnc(C(F)(F)F)o4)cc23)cc1Cl	satisfied
FC(F)(F)c1ccc(-c2nn3ncccc3c2-c2ccnc(Nc3cccc(C(F)(F)F)c3)n2)cc1	satisfied
CC(=O)Nc1n[nH]c2ncc(-c3ccccc3)cc12	satisfied
Cc1ccc(NC(=O)c2cccc(C#N)c2)cc1-c1ccc(C(=O)Nc2ccncc2)cc1	satisfied
Fc1cccc(COc2ccc(Nc3ncnc4sc(-c5ccc[nH]5)cc34)cc2Cl)c1	satisfied

## Task Consider the compound `CCn1c(-c2ccncc2)nc2cnccc21` . Is its %Inh strictly less than 3%?
## Result not satisfied

## Task Consider the compound `Fc1ccc(-c2ncn(CCCNCc3ccccc3)c2-c2ccncc2)cc1` . Is its %Inh strictly less than 3%?
## Result satisfied

## Task Consider the compound `O=C(Nc1n[nH]c2nc(-c3ccco3)c(Br)cc12)c1ccc(CN2CCCC2)cc1.O=C(O)[C@H](O)[C@@H](O)C(=O)O` . Is its %Inh strictly less than 3%?
## Result satisfied

## Task Consider the compound `Nc1nc(-c2cccnc2)c(-c2ccnc3ccccc23)s1` . Is its %Inh strictly less than 3%?
## Result satisfied

## Task Consider the compound `N#Cc1ccc(Oc2ccc(Nc3ncnc4cc[nH]c34)cc2Cl)cc1` . Is its %Inh strictly less than 3%?
## Result not satisfied

## Task Consider the compound `Cn1ccc2ncnc(Oc3ccc(NC(=O)Nc4cccnc4)c(Cl)c3)c21` . Is its %Inh strictly less than 3%?
## Result satisfied

## Task Consider the compound `COC(=O)c1c(-c2ccccc2)c2cc(Cl)ccc2c(=O)n1Cc1ccc(S(C)(=O)=O)cc1` . Is its %Inh strictly less than 3%?
## Result satisfied
